TEST_SYSTEM: TBK1 (Homo sapiens, UniProt Q9UHD2)
Construct: All protein kinases were of human origin and encoded full length proteins, unless indicated otherwise; His6; made in house; host or cells: insect Sf21 cells
TEST_SUMMARY: TBK1 protein kinase assay ([γ-33P]ATP, P81 filterplates)
Format: biochemical
MEASUREMENT_PARAMETERS: 50 μM ATP; read-out: Potency (TBK1 IC50 potency score)
Where a name gives a salt, the structure may show the parent alone.
METRIC_NAME: IC50

Task: I would be grateful if you could share the reported IC50 for O=C(NCCCNc1nc(Nc2ccc(-c3cccnc3)nc2)ncc1C1CC1)C1CCC1 .
Result: < 100 nM

Task: I would be grateful if you could share the reported IC50 for CN(C)c1cccc(Nc2ncc(C3CC3)c(NCCCNC(=O)c3cccs3)n2)c1 [Example 44, trifluoroacetic acid salt] .
Result: 100 to 1000 nM

Task: I would be grateful if you could share the reported IC50 for O=C(NCCCNc1nc(Nc2cccc(-c3cnco3)c2)ncc1C1CC1)C1CCC1 .
Result: < 100 nM

Task: I would be grateful if you could share the reported IC50 for CNc1ccc(Nc2ncc(C3CC3)c(NCCCNC(=O)C3CCC3)n2)cn1 .
Result: < 100 nM

Task: I would be grateful if you could share the reported IC50 for O=C(NCCCNc1nc(Nc2ccc(N3CCCC3=O)cc2)ncc1C1CC1)C1CCC1 .
Result: < 100 nM

Task: I would be grateful if you could share the reported IC50 for Cc1ccc(Nc2ncc(C3CC3)c(NCCCNC(=O)c3cccs3)n2)cn1 .
Result: 1000 to 10000 nM

Task: I would be grateful if you could share the reported IC50 for CN1CCc2cc(Nc3ncc(C4CC4)c(NCCCNC(=O)C4CCC4)n3)ccc2C1 .
Result: < 100 nM

Task: I would be grateful if you could share the reported IC50 for O=C(NCCCNc1nc(Nc2cccc(F)c2)ncc1C1CC1)c1ccsc1 .
Result: < 100 nM

----------
TEST_SYSTEM: TBK1 (Homo sapiens, UniProt Q9UHD2)
Construct: All protein kinases were of human origin and encoded full length proteins, unless indicated otherwise; His6; made in house; host or cells: insect Sf21 cells
Sequence (Q9UHD2 1-729): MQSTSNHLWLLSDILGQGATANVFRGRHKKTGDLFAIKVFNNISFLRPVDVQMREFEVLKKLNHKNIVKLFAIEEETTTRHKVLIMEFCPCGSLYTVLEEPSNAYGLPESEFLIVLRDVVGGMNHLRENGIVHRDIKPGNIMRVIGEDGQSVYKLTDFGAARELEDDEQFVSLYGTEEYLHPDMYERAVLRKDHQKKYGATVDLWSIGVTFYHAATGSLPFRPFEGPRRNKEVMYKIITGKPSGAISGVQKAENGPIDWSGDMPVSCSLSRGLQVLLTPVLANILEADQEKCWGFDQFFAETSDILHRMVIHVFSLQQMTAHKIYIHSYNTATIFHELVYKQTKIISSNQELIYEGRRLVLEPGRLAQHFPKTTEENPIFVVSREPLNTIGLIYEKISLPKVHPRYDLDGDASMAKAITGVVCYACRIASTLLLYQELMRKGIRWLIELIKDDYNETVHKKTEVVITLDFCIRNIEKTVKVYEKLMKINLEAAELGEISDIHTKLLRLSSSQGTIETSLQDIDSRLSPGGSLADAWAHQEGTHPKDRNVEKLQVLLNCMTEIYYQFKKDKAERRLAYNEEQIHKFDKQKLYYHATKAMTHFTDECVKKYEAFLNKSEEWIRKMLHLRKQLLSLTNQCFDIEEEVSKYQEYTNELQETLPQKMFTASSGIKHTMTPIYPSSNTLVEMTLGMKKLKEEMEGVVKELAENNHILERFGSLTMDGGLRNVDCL
TEST_SUMMARY: TBK1 protein kinase assay ([γ-33P]ATP, P81 filterplates)
Type: biochemical
MEASUREMENT_PARAMETERS: Table 5; 50 μM ATP; read-out: TBK1 IC50
Kindly supply the reported IC50 values for the records listed here.
Record the value in µM, omitting the unit from your answer.

Task: I would be grateful if you could share the reported IC50 for CCc1cnc(Nc2cccc(F)c2)nc1NCCCNC(=O)C1CCC1 [Compound D, reference compound] .
Result: 0.042

Task: I would be grateful if you could share the reported IC50 for O=C(NCCCNc1nc(Nc2cccc(F)c2)ncc1C1CC1)C1CCC1 [Example 23] .
Result: 0.004

----------
Kindly supply the reported pIC50 values for the records listed here.
TEST_SYSTEM: TBK1 (Homo sapiens)
Construct: All protein kinases were of human origin and encoded full length proteins, unless indicated otherwise; His6; made in house; host or cells: insect Sf21 cells
TEST_SUMMARY: TBK1 protein kinase assay ([γ-33P]ATP, P81 filterplates)
Type: biochemical
MEASUREMENT_PARAMETERS: 50 μM ATP; read-out: Potency (TBK1 IC50 potency score)
pIC50: −log10 of the molar value. Where a name gives a salt, the structure may show the parent alone.

Task: I would be grateful if you could share the reported pIC50 for O=C(NCCCNc1nc(Nc2ccccc2)ncc1C1CC1)c1cccs1 .
Result: 6.00 to 7.00

Task: I would be grateful if you could share the reported pIC50 for CC(=O)Nc1ccc(Nc2ncc(C3CC3)c(NCCCNC(=O)c3cccs3)n2)cc1 [Example 28, Hydrochloride salt] .
Result: > 7.00

Task: I would be grateful if you could share the reported pIC50 for CN1Cc2cc(Nc3ncc(C4CC4)c(NCCCNC(=O)C4CCC4)n3)ccc2C1=O .
Result: > 7.00

Task: I would be grateful if you could share the reported pIC50 for O=C(NCCCNc1nc(Nc2cccc(CN3CCCC3)c2)ncc1C1CC1)C1CCC1 .
Result: > 7.00

Task: I would be grateful if you could share the reported pIC50 for O=C(NCCCNc1nc(Nc2ccc3cnccc3c2)ncc1C1CC1)c1cccs1 .
Result: 5.00 to 6.00

Task: I would be grateful if you could share the reported pIC50 for CN1CCc2ccc(Nc3ncc(C4CC4)c(NCCCNC(=O)C4CCC4)n3)cc2C1 .
Result: > 7.00

Task: I would be grateful if you could share the reported pIC50 for O=C(NCCCNc1nc(Nc2ccc(C3CC3)nc2)ncc1C1CC1)C1CCC1 .
Result: > 7.00

Task: I would be grateful if you could share the reported pIC50 for Cn1cc(Nc2ncc(C3CC3)c(NCCCNC(=O)C3CCC3)n2)cn1 .
Result: > 7.00

----------
Kindly supply the reported IC50 values for the records listed here.
TEST_SYSTEM: TBK1 (Homo sapiens)
Construct: All protein kinases were of human origin and encoded full length proteins, unless indicated otherwise; His6; made in house; host or cells: insect Sf21 cells
TEST_SUMMARY: TBK1 protein kinase assay ([γ-33P]ATP, P81 filterplates)
Assay type: biochemical
MEASUREMENT_PARAMETERS: 50 μM ATP; read-out: Potency (TBK1 IC50 potency score)
Structures can show the parent of a compound that is named as a salt.

Task: I would be grateful if you could share the reported IC50 for O=C(C1CCC1)N1CC(CNc2nc(Nc3cccc(F)c3)ncc2C2CC2)C1 [Example 162] .
Result: 100 to 1000 nM

Task: I would be grateful if you could share the reported IC50 for Cn1ncc2cc(Nc3ncc(C4CC4)c(NCCCNC(=O)C4CCC4)n3)ccc21 [Example 137] .
Result: < 100 nM

Task: I would be grateful if you could share the reported IC50 for O=C(NCCCNc1nc(Nc2ccc3cn(CC4CC4)nc3c2)ncc1C1CC1)C1CCC1 [Example 194] .
Result: < 100 nM

Task: I would be grateful if you could share the reported IC50 for CN(CCCNc1nc(Nc2cccc(F)c2)ncc1C1CC1)C(=O)C1CCC1 [Example 107] .
Result: < 100 nM

Task: I would be grateful if you could share the reported IC50 for O=C(NCCCNc1nc(Nc2cccc(N3CCNC3=O)c2)ncc1C1CC1)C1CCC1 [Example 140] .
Result: < 100 nM

Task: I would be grateful if you could share the reported IC50 for CN1CCN(Cc2cccc(Nc3ncc(C4CC4)c(NCCCNC(=O)C4CCC4)n3)c2)CC1 [Example 122] .
Result: < 100 nM

Task: I would be grateful if you could share the reported IC50 for O=C1NCc2cc(Nc3ncc(C4CC4)c(NCCCNC(=O)C4CCC4)n3)ccc21 [Example 90, Trifluoroacetic acid salt] .
Result: < 100 nM

Task: I would be grateful if you could share the reported IC50 for O=C(NCCCNc1nc(Nc2ccc3nc[nH]c3c2)ncc1C1CC1)C1CCC1 [Example 96] .
Result: < 100 nM

----------
TEST_SYSTEM: TBK1 (Homo sapiens, UniProt Q9UHD2)
Construct: All protein kinases were of human origin and encoded full length proteins, unless indicated otherwise; His6; made in house; host or cells: insect Sf21 cells
Sequence (Q9UHD2 1-729): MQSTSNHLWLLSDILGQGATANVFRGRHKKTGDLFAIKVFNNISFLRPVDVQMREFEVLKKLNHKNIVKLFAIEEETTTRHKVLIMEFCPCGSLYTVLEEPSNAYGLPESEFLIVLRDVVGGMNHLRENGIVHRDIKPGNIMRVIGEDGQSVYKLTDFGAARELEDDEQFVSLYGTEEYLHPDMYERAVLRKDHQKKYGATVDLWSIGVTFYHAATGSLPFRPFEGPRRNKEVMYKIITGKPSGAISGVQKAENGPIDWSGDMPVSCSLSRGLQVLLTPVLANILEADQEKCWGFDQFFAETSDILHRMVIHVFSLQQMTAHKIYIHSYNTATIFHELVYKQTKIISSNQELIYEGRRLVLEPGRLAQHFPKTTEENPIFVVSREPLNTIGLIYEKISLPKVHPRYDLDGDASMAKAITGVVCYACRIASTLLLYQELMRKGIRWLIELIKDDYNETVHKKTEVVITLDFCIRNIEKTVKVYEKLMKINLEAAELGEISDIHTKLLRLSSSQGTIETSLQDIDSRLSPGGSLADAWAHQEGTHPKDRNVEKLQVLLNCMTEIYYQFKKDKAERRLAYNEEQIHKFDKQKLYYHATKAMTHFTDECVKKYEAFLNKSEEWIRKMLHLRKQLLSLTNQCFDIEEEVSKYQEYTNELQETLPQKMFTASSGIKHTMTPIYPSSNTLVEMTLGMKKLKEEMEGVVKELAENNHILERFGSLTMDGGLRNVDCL
TEST_SUMMARY: TBK1 protein kinase assay ([γ-33P]ATP, P81 filterplates)
Assay type: biochemical
MEASUREMENT_PARAMETERS: 50 μM ATP; read-out: Potency (TBK1 IC50 potency score)
Where a name gives a salt, the structure may show the parent alone.
Kindly supply the reported IC50 values for the records listed here.

Task: // fetch TBK1 (Homo sapiens, UniProt Q9UHD2) IC50 for Cc1n[nH]c(C)c1C(=O)NCCCNc1nc(Nc2cccc(F)c2)ncc1C1CC1
Result: 1000 to 10000 nM

Task: // fetch TBK1 (Homo sapiens, UniProt Q9UHD2) IC50 for CN(CCCNc1nc(Nc2ccc(N3CCOCC3)nc2)ncc1C1CC1)C(=O)C1CCC1
Result: < 100 nM

Task: // fetch TBK1 (Homo sapiens, UniProt Q9UHD2) IC50 for O=C(NCCCNc1nc(Nc2ccc(I)nc2)ncc1C1CC1)C1CCC1
Result: < 100 nM

Task: // fetch TBK1 (Homo sapiens, UniProt Q9UHD2) IC50 for COC(=O)c1cccc(Nc2ncc(C3CC3)c(NCCCNC(=O)c3cccs3)n2)c1 [Example 33, trifluoroacetic acid salt]
Result: 100 to 1000 nM
